# system.under.test: rASIC1a (Rattus norvegicus, UniProt P55926)
# Construct: expressed in transfected cells; host or cells: Xenopus laevis oocytes injected with cRNA
# Sequence (P55926 1-526): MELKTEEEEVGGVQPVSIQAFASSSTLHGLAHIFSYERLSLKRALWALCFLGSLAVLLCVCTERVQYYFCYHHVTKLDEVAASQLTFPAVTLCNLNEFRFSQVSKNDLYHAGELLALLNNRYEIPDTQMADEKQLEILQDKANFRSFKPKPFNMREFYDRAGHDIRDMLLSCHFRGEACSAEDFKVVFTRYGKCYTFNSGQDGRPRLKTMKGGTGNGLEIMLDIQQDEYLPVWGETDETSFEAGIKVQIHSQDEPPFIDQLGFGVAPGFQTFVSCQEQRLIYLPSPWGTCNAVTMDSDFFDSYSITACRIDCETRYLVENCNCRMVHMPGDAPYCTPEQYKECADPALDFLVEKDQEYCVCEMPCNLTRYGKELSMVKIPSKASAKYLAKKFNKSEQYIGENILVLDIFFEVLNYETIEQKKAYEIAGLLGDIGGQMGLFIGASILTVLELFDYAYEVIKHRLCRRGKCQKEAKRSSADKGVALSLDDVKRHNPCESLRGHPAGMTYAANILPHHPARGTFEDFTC
# assay.notes: Two-electrode voltage clamp (TEVC) on Xenopus laevis oocytes expressing homomeric rASIC1a
# Type: cell-based
# condition.summary: at saturating concentrations
# Description: The ability of the peptides of the invention to modulate ASIC currents was assessed using two-electrode voltage clamp (TEVC) electrophysiology experiments performed on Xenopus laevis oocytes expressing homomeric ASIC channels. Xenopus oocytes are widely used as an expression system for functional characterisation of ion channel modulators. TEVC allows measurement of whole-cell ion channel currents while controlling the membrane potential. […]
Bridge positions count the residues as written; N and C are the ends.
measured.endpoint: Extent of inhibition of ASIC1a currents (full or incomplete)

{"chain.sequence": "SEDCIPKWKGCVNRHGDCCEGLECWKRRRSFEVCVPKTEDCIPKWKGCVNRHGDCCEGLECWKRRRSFEVCVPKTPKT (disulfide 4-19, 11-24, 18-34, 41-56, 48-61, 55-71) [EP 1]", "reported.result": "full inhibition"}
{"chain.sequence": "SNECIRKWLSCVDRKNDCCEGLECWKRRHSFEVCVPIPGFCLVKWKQCDGRERDCCAGLECWKRSGNKSSVCAPIT (disulfide 4-19, 11-24, 18-34, 41-56, 48-61, 55-72) [Hi1a Y24W]", "reported.result": "full inhibition"}
{"chain.sequence": "SEDCIPKWKGCVNRHGDCCEGLECWKRRRSFEVCVPKTGDCIPKWKGCVNRHGDCCEGLECWKRRRSFEVCVPKTPKT (disulfide 4-19, 11-24, 18-34, 41-56, 48-61, 55-71) [EP 2]", "reported.result": "full inhibition"}

###

# system.under.test: rASIC1a (Rattus norvegicus, UniProt P55926)
# Construct: expressed in transfected cells; host or cells: Xenopus laevis oocytes injected with cRNA
# assay.notes: Two-electrode voltage clamp (TEVC) on Xenopus laevis oocytes expressing homomeric rASIC1a
# Format: cell-based
Bridge positions count the residues as written; N and C are the ends.
Readings of IC50 for the listed sequences

{"chain.sequence": "SNECIRKWLSCVDRKNDCCEGLECWKRRHSFEVCVPIPGFCLVKWKQCDGRERDCCAGLECWKRSGNKSSVCAPIT (disulfide 4-19, 11-24, 18-34, 41-56, 48-61, 55-72) [Hi1a Y24W]", "IC50 / nM": 0.537}
{"chain.sequence": "SEDCIPKWKGCVNRHGDCCEGLECWKRRRSFEVCVPKTPKTIPGFCLVKWKQCDGRERDCCAGLECWKRSGNKSSVCAPIT (disulfide 4-19, 11-24, 18-34, 46-61, 53-66, 60-77) [PcTx1/Hi1a_C]", "IC50 / nM": 1.3}
{"chain.sequence": "SEDCIPKWKGCVNRHGDCCEGLECWKRRRSFEVCVPKTEDCIPKWKGCVNRHGDCCEGLECWKRRRSFEVCVPKTPKT (disulfide 4-19, 11-24, 18-34, 41-56, 48-61, 55-71) [EP 1]", "IC50 / nM": 64}
